- TARGET: T1, human CD24 on cells (human, UniProt P25063 27-59)
- T1 chain (looked up): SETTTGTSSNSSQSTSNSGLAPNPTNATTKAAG
- PROTOCOL_NOTES: cell-based or functional assay
OBSERVATION_TYPE: EC50 of Phagocytosis assay, IgG4, Kappa; OVCAR3 (µg/mL)
Form entry: value (µg/mL) — number only.

# lookup: EC50 of Phagocytosis assay, IgG4, Kappa; OVCAR3 of 89-E8C12 (4428), IgG4, Kappa (antibody, V domains shown) VH: EVQLQQSGPELVKPGASVKISCKASGYDFTGYYMNWMKQSPEKSLEWIGEINPITSHNTFNQKFKAKATLTVDRSSSTAYMHLKSLTSEDSAVYYCARRDYGTSLDYWGQGTTLTVSS VL: DVQITQSPSYLAASPGETITIYCRASKSISKYLAWYQEKPEKTIRLLIYAGSTLQSGIPSRFRGSGSGTDFTLTVSGLEPEDFAMYYCQQHNEYPLTFGAGTKLELK
0.16

Requested field: EC50 of Phagocytosis assay, IgG4, Kappa; OVCAR3. Item: 85-D5A10 (4434), IgG4, Kappa (antibody, V domains shown) VH: EVQLQQSGPELVKPGASVKISCKASGYEFTGYHMNWVKQSPEKSLEWIGEINPITSDKTFNQKFKAKATLTVDRSSSTAYMHLKSLTSDDSAVYYCARRDYGTSLDYWGQGTTLTVSS VL: DVQITQSPSYLAASPGETITIYCRASKSISKYLAWYQEKPEKTIRLLIYAGSTLQSGIPSRFRGSGSGKDFTLTVSGLEPEDFAMYYCQQHNEYPITFGAGTKLELI
0.38
